Source listed as paper PMC1197287.

- assay-system: UniProt:P0C6Y3
- Sequence (P0C6Y3 2782-3088): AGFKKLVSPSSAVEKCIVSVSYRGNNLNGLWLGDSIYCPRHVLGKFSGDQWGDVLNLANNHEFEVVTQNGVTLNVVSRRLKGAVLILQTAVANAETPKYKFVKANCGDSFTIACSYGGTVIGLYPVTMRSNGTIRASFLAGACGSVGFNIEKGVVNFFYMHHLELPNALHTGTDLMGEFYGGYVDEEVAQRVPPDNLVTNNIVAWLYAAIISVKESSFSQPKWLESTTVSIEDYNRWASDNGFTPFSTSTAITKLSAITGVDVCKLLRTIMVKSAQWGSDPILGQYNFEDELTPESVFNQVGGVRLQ
reported-property: Ki (µM)
Just the number please, in µM, no unit attached.

Assign Ki to the following record: CCOC(=O)/C=C/[C@H](C[C@@H]1CCNC1=O)NC(=O)[C@H](CC(C)C)NC(=O)[C@@H](NC(=O)[C@H](C)NC(=O)c1cc(C)on1)C(C)C [N1]
3.9

====

- assay-system: CoV M^pros
- test-context: read-out: Ki, range over CoV M^pros
reported-property: Ki

Assign Ki to the following record: CCOC(=O)/C=C/[C@H](C[C@@H]1CCNC1=O)NC(=O)[C@H](CC(C)C)NC(=O)[C@@H](NC(=O)[C@H](C)NC(=O)c1cc(C)on1)C(C)C
1.11 to 10.7 µM
